The reported numbers originate from patent US7087622B2.

Some compounds, each annotated with its measured log10(IC50).
System: SPI1 type III protein secretion system (SopE-Bla secretion)
protocol: Primary assay: Type III protein secretion of the chimeric SopE-Bla polypeptide by Salmonella enterica (nitrocefin hydrolysis)
Type: cell-based
conditionContext: read-out: SopE IC50(uM)
experimentalEndpoint: log10(IC50) (log10 of the value in µM)

compound: O=C(Nc1cc(-c2ccc(-c3ccccc3)cc2)cn([C@@H](Cc2ccccc2)C(=O)O)c1=O)c1ccc(C(F)(F)F)cc1
testTarget: SPI1 type III protein secretion system (SopE-Bla secretion)
log10(IC50): 0.97
//
compound: CN(C)c1ccc(-c2cc(NC(=O)c3ccc(C(F)(F)F)cc3)c(=O)n([C@@H](COCc3ccccc3)C(=O)O)c2)cc1
testTarget: SPI1 type III protein secretion system (SopE-Bla secretion)
log10(IC50): 1.88
//
compound: O=C(Nc1cc(-c2ccc(Oc3ccccc3)cc2)cn(C(Cc2ccc(Cl)cc2)C(=O)O)c1=O)c1ccc(-c2ccccc2)cc1 (centres unmarked)
testTarget: SPI1 type III protein secretion system (SopE-Bla secretion)
log10(IC50): 0.08
//
compound: CC(C)Oc1ccc(-c2cc(NC(=O)c3ccc(C(F)(F)F)cc3)c(=O)n([C@@H](COCc3ccccc3)C(=O)O)c2)cc1
testTarget: SPI1 type III protein secretion system (SopE-Bla secretion)
log10(IC50): 1.83
//
compound: O=C(Nc1cc(-c2ccc(-c3ccccc3)cc2)cn(C(Cc2ccc(Cl)cc2)C(=O)O)c1=O)c1ccc(-c2ccccc2)cc1 (centres unmarked)
testTarget: SPI1 type III protein secretion system (SopE-Bla secretion)
log10(IC50): 0.15
//
compound: O=C(Nc1cc(-c2cc(F)cc(F)c2)cn(C(Cc2ccc(Cl)cc2)C(=O)O)c1=O)c1ccc(-c2ccccc2)cc1 (centres unmarked)
testTarget: SPI1 type III protein secretion system (SopE-Bla secretion)
log10(IC50): 0.38
//
compound: O=C(Nc1cc(-c2ccc(O)cc2)cn(C(Cc2ccc(Cl)cc2)C(=O)O)c1=O)c1ccc(C(F)(F)F)cc1 (centres unmarked)
testTarget: SPI1 type III protein secretion system (SopE-Bla secretion)
log10(IC50): 1.50
//
compound: O=C(Nc1cc(-c2ccc(F)cc2)cn(C(Cc2ccc(Cl)cc2)C(=O)O)c1=O)c1ccc(Oc2ccccc2)cc1 (centres unmarked)
testTarget: SPI1 type III protein secretion system (SopE-Bla secretion)
log10(IC50): 0.69
//
compound: O=C(Nc1cc(-c2cccc3ccccc23)cn(C(CSCc2ccccc2)C(=O)O)c1=O)c1ccc(C(F)(F)F)cc1 (stereo in doubt)
testTarget: SPI1 type III protein secretion system (SopE-Bla secretion)
log10(IC50): 0.81
//
compound: O=C(Nc1cc(-c2ccc(O)cc2)cn(C(Cc2ccc(Cl)cc2)C(=O)O)c1=O)c1ccc(-c2ccccc2)cc1 (centres unmarked)
testTarget: SPI1 type III protein secretion system (SopE-Bla secretion)
log10(IC50): 0.56
//
compound: O=C(Nc1cc(-c2ccc(Cl)c(Cl)c2)cn(C(Cc2ccc(Cl)cc2)C(=O)O)c1=O)c1ccc(-c2ccccc2)cc1 (centres unmarked)
testTarget: SPI1 type III protein secretion system (SopE-Bla secretion)
log10(IC50): 0.94
//
compound: O=C(Nc1cc(C#Cc2ccccc2)cn(C(Cc2ccc(Cl)cc2)C(=O)O)c1=O)c1ccc(C(F)(F)F)cc1 (centres unmarked)
testTarget: SPI1 type III protein secretion system (SopE-Bla secretion)
log10(IC50): 1.53
//
compound: CN(C)c1ccc(-c2cc(NC(=O)c3ccc(Oc4ccccc4)cc3)c(=O)n(C(Cc3ccc(Cl)cc3)C(=O)O)c2)cc1 (centres unmarked)
testTarget: SPI1 type III protein secretion system (SopE-Bla secretion)
log10(IC50): 0.56
//
compound: O=C(Nc1cc(-c2cccc3ccccc23)cn(C(Cc2ccc(Cl)cc2)C(=O)O)c1=O)c1ccc(-c2ccccc2)cc1 (centres unmarked)
testTarget: SPI1 type III protein secretion system (SopE-Bla secretion)
log10(IC50): 0.04
//
compound: O=C(Nc1cc(-c2ccc(Cl)c(Cl)c2)cn(C(Cc2ccc(Cl)cc2)C(=O)O)c1=O)c1ccc(C(F)(F)F)cc1 (centres unmarked)
testTarget: SPI1 type III protein secretion system (SopE-Bla secretion)
log10(IC50): 0.43
//
compound: O=C(Nc1cc(-c2ccsc2)cn(C(Cc2ccc(Cl)cc2)C(=O)O)c1=O)c1ccc(-c2ccccc2)cc1 (centres unmarked)
testTarget: SPI1 type III protein secretion system (SopE-Bla secretion)
log10(IC50): 0.45
//
compound: O=C(Nc1cc(-c2ccc(F)cc2)cn(C(Cc2ccc(Cl)cc2)C(=O)O)c1=O)c1ccc(-c2ccccc2)cc1 (centres unmarked)
testTarget: SPI1 type III protein secretion system (SopE-Bla secretion)
log10(IC50): 0.36
//
compound: O=C(Nc1cc(-c2ccc(F)cc2F)cn(C(Cc2ccc(Cl)cc2)C(=O)O)c1=O)c1ccc(C(F)(F)F)cc1 (centres unmarked)
testTarget: SPI1 type III protein secretion system (SopE-Bla secretion)
log10(IC50): 1.13
//
compound: O=C(Nc1cc(-c2cccs2)cn(C(Cc2ccc(Cl)cc2)C(=O)O)c1=O)c1ccc(-c2ccccc2)cc1 (centres unmarked)
testTarget: SPI1 type III protein secretion system (SopE-Bla secretion)
log10(IC50): 0.81
//
compound: O=C(Nc1cc(-c2cccc3ccccc23)cn([C@@H](COCc2ccccc2)C(=O)O)c1=O)c1ccc(C(F)(F)F)cc1
testTarget: SPI1 type III protein secretion system (SopE-Bla secretion)
log10(IC50): 1.47
//
compound: O=C(Nc1cc(-c2ccc(Cl)cc2)cn(C(Cc2ccc(Cl)cc2)C(=O)O)c1=O)c1ccc(Oc2ccccc2)cc1 (centres unmarked)
testTarget: SPI1 type III protein secretion system (SopE-Bla secretion)
log10(IC50): 0.95
//
compound: O=C(Nc1cc(-c2ccccc2Oc2ccccc2)cn([C@@H](COCc2ccccc2)C(=O)O)c1=O)c1ccc(C(F)(F)F)cc1
testTarget: SPI1 type III protein secretion system (SopE-Bla secretion)
log10(IC50): 1.43
//
compound: O=C(Nc1cc(-c2cccc(C(F)(F)F)c2)cn(C(Cc2ccc(Cl)cc2)C(=O)O)c1=O)c1ccc(Oc2ccccc2)cc1 (centres unmarked)
testTarget: SPI1 type III protein secretion system (SopE-Bla secretion)
log10(IC50): 0.99
//
compound: CN(C)c1ccc(-c2cc(NC(=O)c3ccc(-c4ccccc4)cc3)c(=O)n(C(Cc3ccc(Cl)cc3)C(=O)O)c2)cc1 (centres unmarked)
testTarget: SPI1 type III protein secretion system (SopE-Bla secretion)
log10(IC50): 0.45
//
compound: COc1ccc(-c2cc(NC(=O)c3ccc(-c4ccccc4)cc3)c(=O)n(C(Cc3ccc(Cl)cc3)C(=O)O)c2)cc1OC (centres unmarked)
testTarget: SPI1 type III protein secretion system (SopE-Bla secretion)
log10(IC50): 0.51
